# System: CD34+ human bone marrow progenitor cells
# measurement conditions: CD34+ progenitor cell cultures, single assay, single cultures; FIG. 6
Quick reference: increase in HbF expression of the listed items.
Hi! Could you send only the number? It should be in %, unit omitted.

molecule | increase in HbF expression (%)
CC(C)Oc1ccc2nc(C(=O)NCC(=O)O)c(O)cc2c1 [HPI-5] | 75

Could you now look at the following molecule, please?
*Q* In one line, give reported increase in HbF expression of the entry O=C(O)CNC(=O)c1nc2cc(Cl)ccc2cc1O [HPI-4] .
*A* 56
